biological target: T1, cynomolgus monkey FcRn (cynomolgus monkey, UniProt Q8SPV9 24-297; Q8SPW0 21-119, limits assumed); test: SPR, pH 6
T1 construct: also called cynoFcRn
pKd for assorted binders
Value format note: pKd is -log10 of concentration (mol/L); just state the number.

Observe how each entry below is paired with its result.
{"columns": ["binder", "pKd"],
 "data": [
  ["Fc Fragment 11 (other, Human IgG1 Fc fragment; substitutions already in the entry) DKTHTCPPCPAPELLGGPSVFLFPPKPKDTLYITREPEVTCVVVDVSHEDPEVKFNWYVDGVEVHNAKTKPREEQYNSTYRVVSVLTVLHQDWLNGKEYKCKVSNKALPAPIEKTISKAKGQPREPQVYTLPPSRDELTKNQVSLTCLVKGFYPSDIAVEWESNGQPENNYKTTPPVLDSDGSFFLYSKLTVDKSRWQQGNVFSCSVLHEALHFHYTQKSLSLSPG", 7.41],
  ["Fc Fragment 19 (other, Human IgG1 Fc fragment; substitutions already in the entry) DKTHTCPPCPAPELLGGPSVFLFPPKPKDTLYITREPEVTCVVVDVSHEDPEVKFNWYVDGVEVHNAKTKPREEQYNSTYRVVSVLTVDHKDWLNGKEYKCKVSNKALPAPIEKTISKAKGQPREPQVYTLPPSRDELTKNQVSLTCLVKGFYPSDIAVEWESNGQPENNYKTTPPVLDSDGSFFLYSKLTVDKSRWQQGNVFSCSVMHEALKFHYTQKSLSLSPG", 5.90],
  ["Fc Fragment 16 (other, Human IgG1 Fc fragment; substitutions already in the entry) DKTHTCPPCPAPELLGGPSVFLFPPKPKDTLYITREPEVTCVVVDVSHEDPEVKFNWYVDGVEVHNAKTKPREEQYNSTYRVVSVLTVDHQDWLNGKEYKCKVSNKALPAPIEKTISKAKGQPREPQVYTLPPSRDELTKNQVSLTCLVKGFYPSDIAVEWESNGQPENNYKTTPPVLDSDGSFFLYSKLTVDKSRWQQGNVFSCSVMHEALKYHYTQKSLSLSPG", 7.33],
  ["Fc Fragment 20 (other, Human IgG1 Fc fragment; substitutions already in the entry) DKTHTCPPCPAPELLGGPSVFLFPPKPKDTLYITREPEVTCVVVDVSHEDPEVKFNWYVDGVEVHNAKTKPREEQYNSTYRVVSVLTVDHKDWLNGKEYKCKVSNKALPAPIEKTISKAKGQPREPQVYTLPPSRDELTKNQVSLTCLVKGFYPSDIAVEWESNGQPENNYKTTPPVLDSDGSFFLYSKLTVDKSRWQQGNVFSCSVMHEALKYHYTQKSLSLSPG", 6.43]
]}

Tell me its pKd given Fc Fragment 1 (other, Human IgG1 Fc fragment (EU 221-446) with the named substitutions already in the entry; also called Efgartigimod (Efgart); Efgartigimod without the C-terminal lysine) DKTHTCPPCPAPELLGGPSVFLFPPKPKDTLYITREPEVTCVVVDVSHEDPEVKFNWYVDGVEVHNAKTKPREEQYNSTYRVVSVLTVLHQDWLNGKEYKCKVSNKALPAPIEKTISKAKGQPREPQVYTLPPSRDELTKNQVSLTCLVKGFYPSDIAVEWESNGQPENNYKTTPPVLDSDGSFFLYSKLTVDKSRWQQGNVFSCSVMHEALKFHYTQKSLSLSPG as the entry. 7.40
